Biological target: Melanocortin receptor 4 (Rattus norvegicus) (UniProt P70596)
Sequence (P70596 whole entry): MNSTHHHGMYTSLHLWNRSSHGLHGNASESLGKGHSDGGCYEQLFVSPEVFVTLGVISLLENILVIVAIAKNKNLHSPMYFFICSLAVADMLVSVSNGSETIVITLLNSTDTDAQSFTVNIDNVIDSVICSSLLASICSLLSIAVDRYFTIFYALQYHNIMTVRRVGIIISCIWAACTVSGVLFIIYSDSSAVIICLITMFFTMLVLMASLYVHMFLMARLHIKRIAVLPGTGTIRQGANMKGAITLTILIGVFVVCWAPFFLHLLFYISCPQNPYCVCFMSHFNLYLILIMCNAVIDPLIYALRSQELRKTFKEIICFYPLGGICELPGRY
Test: Agonist activity at rat MC4R expressed in CHO cells assessed as cAMP release at 10 uM relative to alpha-MSH
Type: functional, cell-based

cpd smiles | Activity
CC[C@H](NC(C)=O)c1cc(Cl)ccc1C1CCN(C(=O)[C@H]2CN(C(C)(C)C)C[C@@H]2c2ccc(Br)cc2F)CC1 | 44%
CC[C@H](NC(C)=O)c1cc(Cl)ccc1C1CCN(C(=O)[C@@H]2CN(C(C)(C)C)C[C@H]2c2ccc(Cl)cc2F)CC1 | 106%
CC[C@H](NC(C)=O)c1cc(Cl)ccc1C1CCN(C(=O)[C@H]2CN(C(C)(C)C)C[C@@H]2c2ccc(C(F)(F)F)cc2)CC1 | 15%
CC[C@H](NC(C)=O)c1cc(Cl)ccc1C1CCN(C(=O)[C@@H]2CN(C(C)(C)C)C[C@H]2c2ccc(Br)cc2F)CC1 | 94%
CC[C@H](NC(C)=O)c1cc(Cl)ccc1C1CCN(C(=O)[C@H]2CN(C(C)(C)C)C[C@@H]2c2ccc(Cl)cc2Cl)CC1 | 6%

###

Target: Melanocortin receptor 4 (Homo sapiens)
Test: Displacement of [125I]NDP-alpha-MSH from human MC4R expressed in CHO cells
pIC50: −log10 of the molar value.
Label scheme for pIC50: lower than 8 is N, 8 and above is Y.

cpd smiles | assigned category
CC[C@H](NC(C)=O)c1cc(Cl)ccc1C1CCN(C(=O)[C@H]2CN(C(C)(C)C)C[C@@H]2c2ccc(OC)cc2F)CC1 | N
CC[C@H](NC(C)=O)c1cc(Cl)ccc1C1CCN(C(=O)[C@H]2CN(C(C)(C)C)C[C@@H]2c2ccc(Br)cc2F)CC1 | Y
CC[C@H](NC(C)=O)c1cc(Cl)ccc1C1CCN(C(=O)[C@@H]2CN(C(C)(C)C)C[C@H]2c2ccc(F)cc2F)CC1 | N
CC[C@H](NC(C)=O)c1cc(Cl)ccc1C1CCN(C(=O)[C@@H]2CN(C(C)(C)C)C[C@H]2c2ccc(Cl)cc2Cl)CC1 | N
CC[C@H](NC(C)=O)c1cc(Cl)ccc1C1CCN(C(=O)[C@@H]2CN(C(C)(C)C)C[C@H]2c2ccc(Br)cc2F)CC1 | Y
CC[C@H](NC(C)=O)c1cc(Cl)ccc1C1CCN(C(=O)[C@H]2CN(C(C)(C)C)C[C@@H]2c2ccc(F)cc2Cl)CC1 | N
CC[C@H](NC(C)=O)c1cc(Cl)ccc1C1CCN(C(=O)[C@@H]2CN(C(C)(C)C)C[C@H]2c2ccc(C(F)(F)F)cc2F)CC1 | N
CC[C@H](NC(C)=O)c1cc(Cl)ccc1C1CCN(C(=O)[C@@H]2CN(C(C)(C)C)C[C@H]2c2cc(F)c(F)cc2F)CC1 | N
CC[C@H](NC(C)=O)c1cc(Cl)ccc1C1CCN(C(=O)[C@@H]2CN(C(C)(C)C)C[C@H]2c2ccc3ccccc3c2)CC1 | N
CC[C@H](NC(C)=O)c1cc(Cl)ccc1C1CCN(C(=O)[C@H]2CN(C(C)(C)C)C[C@@H]2c2cc(F)c(F)cc2F)CC1 | N
CC[C@H](NC(C)=O)c1cc(Cl)ccc1C1CCN(C(=O)[C@H]2CN(C(C)(C)C)C[C@@H]2c2ccc(F)cc2F)CC1 | N
CC[C@H](NC(C)=O)c1cc(Cl)ccc1C1CCN(C(=O)[C@@H]2CN(C(C)(C)C)C[C@H]2c2ccc(C(F)(F)F)cc2)CC1 | N

###

Target: Melanocortin receptor 4 (Homo sapiens, UniProt P32245)
Sequence (P32245 whole entry): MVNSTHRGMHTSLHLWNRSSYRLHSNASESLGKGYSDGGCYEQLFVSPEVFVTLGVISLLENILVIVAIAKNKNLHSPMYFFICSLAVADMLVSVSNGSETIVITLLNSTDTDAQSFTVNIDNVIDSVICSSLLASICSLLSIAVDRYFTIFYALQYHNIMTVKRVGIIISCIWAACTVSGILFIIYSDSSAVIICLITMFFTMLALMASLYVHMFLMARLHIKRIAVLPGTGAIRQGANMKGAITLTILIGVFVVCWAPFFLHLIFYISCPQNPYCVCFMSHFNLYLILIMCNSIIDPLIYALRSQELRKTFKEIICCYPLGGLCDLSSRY
Experiment: Agonist activity at human MC4R expressed in CHO cells assessed as cAMP release
Type: functional, cell-based

cpd smiles | endpoint unit | EC50
CC[C@H](NC(C)=O)c1cc(Cl)ccc1C1CCN(C(=O)[C@@H]2CN(C(C)(C)C)C[C@H]2c2ccc(Cl)cc2Cl)CC1 | nM | 156
CC[C@H](NC(C)=O)c1cc(Cl)ccc1C1CCN(C(=O)[C@H]2CN(C(C)(C)C)C[C@@H]2c2ccc(Cl)cc2F)CC1 | nM | 111
CC[C@H](NC(C)=O)c1cc(Cl)ccc1C1CCN(C(=O)[C@H]2CN(C(C)(C)C)C[C@@H]2c2ccc(F)cc2F)CC1 | nM | 565
CC[C@H](NC(C)=O)c1cc(Cl)ccc1C1CCN(C(=O)[C@@H]2CN(C(C)(C)C)C[C@H]2c2ccc(C(F)(F)F)cc2)CC1 | nM | 67.2
CC[C@H](NC(C)=O)c1cc(Cl)ccc1C1CCN(C(=O)[C@@H]2CN(C(C)(C)C)C[C@H]2c2ccc(C(F)(F)F)cc2F)CC1 | nM | 88.8
CC[C@H](NC(C)=O)c1cc(Cl)ccc1C1CCN(C(=O)[C@@H]2CN(C(C)(C)C)C[C@H]2c2ccc(OC)cc2F)CC1 | nM | 4.6
CC[C@H](NC(C)=O)c1cc(Cl)ccc1C1CCN(C(=O)[C@H]2CN(C(C)(C)C)C[C@@H]2c2ccc3ccccc3c2)CC1 | nM | 1920
CC[C@H](NC(C)=O)c1cc(Cl)ccc1C1CCN(C(=O)[C@@H]2CN(C(C)(C)C)C[C@H]2c2cc(F)c(F)cc2F)CC1 | nM | 130

###

Recorded measurements of %max, one per entry
Target: Melanocortin receptor 4 (Homo sapiens, UniProt P32245)
Test: Agonist activity at human MC4R expressed in CHO cells assessed as cAMP release relative to alpha-MSH
Type: functional, cell-based

cpd smiles | target under test | %max
CC[C@H](NC(C)=O)c1cc(Cl)ccc1C1CCN(C(=O)[C@@H]2CN(C(C)(C)C)C[C@H]2c2ccc(Br)cc2F)CC1 | Melanocortin receptor 4 (Homo sapiens, UniProt P32245) | 100%
CC[C@H](NC(C)=O)c1cc(Cl)ccc1C1CCN(C(=O)[C@H]2CN(C(C)(C)C)C[C@@H]2c2ccc(F)cc2F)CC1 | Melanocortin receptor 4 (Homo sapiens, UniProt P32245) | 83%
CC[C@H](NC(C)=O)c1cc(Cl)ccc1C1CCN(C(=O)[C@@H]2CN(C(C)(C)C)C[C@H]2c2ccc(F)cc2Cl)CC1 | Melanocortin receptor 4 (Homo sapiens, UniProt P32245) | 84%

###

Target: UniProt P32245
Test: Displacement of [125I]NDP-alpha-MSH from human MC4R expressed in CHO cells
pIC50: −log10 of the molar value.
Each entry below lists one item and its recorded pIC50 value.

cpd smiles | pIC50
CC[C@H](NC(C)=O)c1cc(Cl)ccc1C1CCN(C(=O)[C@H]2CN(C(C)(C)C)C[C@@H]2c2ccc(C(F)(F)F)cc2F)CC1 | 8.01
CC[C@H](NC(C)=O)c1cc(Cl)ccc1C1CCN(C(=O)[C@@H]2CN(C(C)(C)C)C[C@H]2c2ccc(Cl)cc2F)CC1 | 8.21
CC[C@H](NC(C)=O)c1cc(Cl)ccc1C1CCN(C(=O)[C@H]2CN(C(C)(C)C)C[C@@H]2c2ccc(Cl)cc2F)CC1 | 7.88
CC[C@H](NC(C)=O)c1cc(Cl)ccc1C1CCN(C(=O)[C@@H]2CN(C(C)(C)C)C[C@H]2c2ccc(OC)cc2F)CC1 | 7.95
